TEST METHOD NOTES: M. tuberculosis growth inhibition, HTS (AID 449762);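 also: bacterial growth assessed after seven days of incubation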
RECORDED CONDITIONS: M. tuberculosis H37Rv growth inhibition, 7H9 media; at 25 µM; active compounds read high
The whole screen tested about 330,000 compounds, of which about 1,900 (0.58%) were called active. Another 4% or so got no clear call; they are omitted. Only a sample is shown. Potency and affinity values are given separately.
# key: entry, value: inhibition
READOUT NAME: inhibition (%)

- COMPOUND: "COCCNc1nc(-c2cc(C(=O)Nc3ccccc3)on2)cc(C(C)C)n1"
  UNIT: "%"
  MEASURED NUMBER: 14.4
- COMPOUND: "Nc1c(N(CCC2=CCCCC2)C(=O)c2ccco2)c(=O)[nH]c(=O)n1Cc1ccccc1"
  UNIT: "%"
  MEASURED NUMBER: 9.03
- COMPOUND: "C/C=C(\\C)C(=O)NCCN1C2=NC[C@H](C)N2C[C@@H]1Cc1ccc(OC)cc1"
  UNIT: "%"
  MEASURED NUMBER: 0.12
- COMPOUND: "Cc1ccc(C)c(N2CCN(C(=S)Nc3ccc4nc(N5CCOCC5)cc(C)c4c3)CC2)c1"
  UNIT: "%"
  MEASURED NUMBER: -4.9
- COMPOUND: "N#C/C(=C/c1ccc(Br)s1)C(=O)NCCc1c[nH]c2ccccc12"
  UNIT: "%"
  MEASURED NUMBER: 3.76
- COMPOUND: "O=c1[nH]c2ccccc2nc1-c1ccccc1"
  UNIT: "%"
  MEASURED NUMBER: -0.96
- COMPOUND: "S=C(NCc1ccc2c(c1)OCO2)NCc1ccc2c(c1)OCO2"
  UNIT: "%"
  MEASURED NUMBER: 2.49
- COMPOUND: "CC(=O)OCn1ncc(N2CCOCC2)c(Br)c1=O"
  UNIT: "%"
  MEASURED NUMBER: -0.34
- COMPOUND: "CCCOC(=O)c1cccc(NC(=O)COc2ccc([N+](=O)[O-])cc2)c1"
  UNIT: "%"
  MEASURED NUMBER: 66.4
- COMPOUND: "CC1CN(C(=S)c2cccc([N+](=O)[O-])c2)CC(C)O1 (configuration not stated)"
  UNIT: "%"
  MEASURED NUMBER: -2.37
- COMPOUND: "CCC1(CC)C(=O)N(Cc2ccccc2)C(=O)N(Cc2ccccc2)C1=O"
  UNIT: "%"
  MEASURED NUMBER: -1.75
- COMPOUND: "O=C(NNC(=S)Nc1ccccc1Cl)c1ccccc1"
  UNIT: "%"
  MEASURED NUMBER: -3.72
- COMPOUND: "CCOC(=O)c1cnn(CCOC(=O)c2ccc(F)cc2)c1NC(=O)c1ccc(F)cc1"
  UNIT: "%"
  MEASURED NUMBER: 0.06
- COMPOUND: "C/C(=N/NC(=O)c1cccs1)c1ccc(N2CCOCC2)cc1"
  UNIT: "%"
  MEASURED NUMBER: -6.32
- COMPOUND: "Cc1ccc(C(=O)N(CCC2=CCCCC2)c2c(N)n(Cc3ccccc3)c(=O)[nH]c2=O)o1"
  UNIT: "%"
  MEASURED NUMBER: 6.47
- COMPOUND: "Cc1ccc(/C=C/C(=O)O)cc1S(=O)(=O)N1CCc2ccccc21"
  UNIT: "%"
  MEASURED NUMBER: -1.47
- COMPOUND: "O=C(NCc1ccc2c(c1)OCO2)C1CCCN1S(=O)(=O)c1ccc(Cl)cc1 (configuration not stated)"
  UNIT: "%"
  MEASURED NUMBER: -0.02
- COMPOUND: "COc1ccc2cc(C(=O)/C=C/c3cc(OC)c(O)c(OC)c3)ccc2c1"
  UNIT: "%"
  MEASURED NUMBER: 36.1
- COMPOUND: "COc1ccccc1-c1ccc(SCC(=O)NC2CCCC2)nn1"
  UNIT: "%"
  MEASURED NUMBER: -0.31
- COMPOUND: "CC(C)(Oc1ccc(F)cc1)C(=O)OCC(=O)c1ccc(S(C)(=O)=O)cc1"
  UNIT: "%"
  MEASURED NUMBER: 3.45
- COMPOUND: "CCC(C(=O)Nc1ccc(OC)c(Cl)c1)c1ccccc1 (configuration not stated)"
  UNIT: "%"
  MEASURED NUMBER: -3.28
- COMPOUND: "CCCC(=O)c1ccc(-c2ccccc2)cc1"
  UNIT: "%"
  MEASURED NUMBER: 1.42

---

TEST METHOD NOTES: M. tuberculosis growth inhibition, HTS (AID 449762);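 also: bacterial growth assessed after seven days of incubation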
RECORDED CONDITIONS: M. tuberculosis H37Rv growth inhibition, 7H9 media; at 25 µM; active compounds read high
Hit rate of the full screen: of about 330,000 compounds, about 1,900 (0.58%) were called active. Roughly 4% stayed inconclusive and do not appear here. Not all results are given here. Results with a measured potency or affinity are listed apart.
This listing pairs compounds with measured inhibition.

- COMPOUND: "Cc1ccc(OCC(=O)N(C)CC(=O)Nc2ccc(F)c(F)c2F)cc1"
  inhibition (%): 4.12
- COMPOUND: "COc1ccc(NC(=O)NCc2cccnc2)cc1OC"
  inhibition (%): -5.2
- COMPOUND: "CCOc1ccc([C@@H]2CC=C(C(=O)O)[C@H](c3ccc(Cl)cc3)N2S(=O)(=O)c2ccc(C)cc2)cc1"
  inhibition (%): -1.26
- COMPOUND: "c1ccc(-c2ccc(SCc3cccnc3)nn2)nc1"
  inhibition (%): -8.38
- COMPOUND: "O=C(C1=C[C@@H](c2ccc(C(F)(F)F)cc2)C[C@@H](OCc2ccc(CO)cc2)O1)N1CCN(Cc2ccccc2)CC1"
  inhibition (%): 5.34
- COMPOUND: "C[C@@]12C(=O)N(CCO)CC(=O)N1[C@H](/C=C/c1ccccc1)[C@@H]1C(=O)N(c3ccccc3)C(=O)[C@@H]12"
  inhibition (%): -1.57
- COMPOUND: "COc1ccc(N2C(=O)CCC2=O)cc1"
  inhibition (%): -16.1
- COMPOUND: "CC(C)Nc1nc(NC(C)C)nc(N(C)C#N)n1"
  inhibition (%): 0.57
- COMPOUND: "O=C(CCCSc1nc2ccccc2[nH]1)N1CCN(c2ccc([N+](=O)[O-])cc2)CC1"
  inhibition (%): -13.5
- COMPOUND: "COc1cccc(NC(=O)C2CCCO2)c1 (stereo not given)"
  inhibition (%): 0.33

---

TEST METHOD NOTES: M. tuberculosis growth inhibition, HTS (AID 449762);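 also: bacterial growth assessed after seven days of incubation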
RECORDED CONDITIONS: M. tuberculosis H37Rv growth inhibition, 7H9 media; at 25 µM; active compounds read high
Hit rate of the full screen: of about 330,000 compounds, about 1,900 (0.58%) were called active. Another 4% or so got no clear call; they are omitted. Only a sample is shown. Measured potencies and affinities stand elsewhere.

- COMPOUND: "O=C(NCC1CCCO1)c1cc([N+](=O)[O-])ccc1N1CCC(Cc2ccccc2)CC1 (configuration not stated)"
  inhibition [%]: 32.2
- COMPOUND: "O=C1C(=O)c2cccc3cccc1c23"
  inhibition [%]: 3.34
- COMPOUND: "CCOc1ccc(N2CC(C(=O)N3CCCCCC3)CC2=O)cc1 (configuration not stated)"
  inhibition [%]: -1.61
- COMPOUND: "COc1ccccc1N1CCN(CCCCOc2ccc(F)cc2)CC1"
  inhibition [%]: -1.86
- COMPOUND: "CCOc1ccc(N2C(=O)CC(NC3CCN(C(=O)c4ccc(F)cc4)CC3)C2=O)cc1 (configuration not stated)"
  inhibition [%]: -3
- COMPOUND: "c1ccc(C2Oc3ccccc3C3CC(c4cccs4)=NN32)cc1 (configuration not stated)"
  inhibition [%]: -7.12
- COMPOUND: "Cc1cc(C)c(OCC(=O)Nc2ccccc2N2CCOCC2)c(C)c1"
  inhibition [%]: -8.49
- COMPOUND: "CCc1ccc2c(c1)cc(CN(C(=S)Nc1ccc(Cl)cc1)C1CC1)c1nnnn12"
  inhibition [%]: -13.5
- COMPOUND: "COc1ccccc1C1CCN(Cc2ccccc2)CC1"
  inhibition [%]: -7.77
- COMPOUND: "COc1ccccc1CNC(=O)/C=C/c1ccc(Br)o1"
  inhibition [%]: 3.6
- COMPOUND: "Cc1ccc2c(c1)Oc1ccc(NC(=O)CCCl)cc1C(=O)N2"
  inhibition [%]: 11.1
- COMPOUND: "COc1ccc(Nc2oc(-c3ccccc3)nc2C#N)cc1"
  inhibition [%]: -0.48
- COMPOUND: "COc1cccc(C(=O)OCC(=O)c2ccc(Br)s2)c1"
  inhibition [%]: -2.52
- COMPOUND: "COc1ccccc1OCCNC(=O)C1CC(=O)N(Cc2ccc(C)cc2)C1 (configuration not stated)"
  inhibition [%]: -0.95
- COMPOUND: "C[C@H](NC(=O)C1CC(=O)N(c2ccc3c(c2)OCCO3)C1)C(=O)NCc1ccco1 (some centres not stated)"
  inhibition [%]: 0.57
- COMPOUND: "CC(C)c1ccc(OCC(=O)N(Cc2ccco2)C2CCS(=O)(=O)C2)cc1 (configuration not stated)"
  inhibition [%]: 11.8
- COMPOUND: "Cc1ccc(-c2nc3ncccn3c2Nc2ccc3c(c2)OCO3)o1"
  inhibition [%]: 3.61
- COMPOUND: "COc1ccc2c(c1)C(=O)/C(=C/C=C/c1ccccc1)CC2"
  inhibition [%]: 6.15
- COMPOUND: "COC(CNC(=O)CNC(=S)N(CCCN1CCOCC1)Cc1cccs1)OC"
  inhibition [%]: 12.5
- COMPOUND: "Cc1ccc(N=CC2=C(O)CC(c3ccco3)CC2=O)cc1 (configuration not stated)"
  inhibition [%]: -6.24
- COMPOUND: "O=C(O)C1CC(c2ccccc2)=Nc2ccccc2S1 (configuration not stated)"
  inhibition [%]: 13.4
- COMPOUND: "Cc1nc2c(=O)oc3ccccc3c2n1-c1ccccc1"
  inhibition [%]: -4.41
- COMPOUND: "COc1ccccc1C1CCN(Cc2ccc(Cl)c(Cl)c2)CC1"
  inhibition [%]: 6.04
- COMPOUND: "COC(=O)c1cnn(-c2ccc(C)c(C)c2)c1-n1cccc1"
  inhibition [%]: 3
- COMPOUND: "COc1ccc2c(c1)CC/C(=C/c1cc(OC)c(OC)c(OC)c1)C2=O"
  inhibition [%]: 50
- COMPOUND: "Cc1cccc(C(=O)Nc2ccc(S(=O)(=O)N3CCOCC3)cc2)c1[N+](=O)[O-]"
  inhibition [%]: 6.13
- COMPOUND: "COc1ccc(C2=NN3C(C2)c2ccccc2OC3c2cccs2)cc1 (configuration not stated)"
  inhibition [%]: -3.24
- COMPOUND: "CCc1ccc(N2C(=O)CN(Cc3cccs3)C2=S)cc1"
  inhibition [%]: 38.7
- COMPOUND: "CCOc1ccc(NC(=S)NC23CC4CC(CC(C4)C2)C3)cc1"
  inhibition [%]: -20.5
- COMPOUND: "COc1ccc2c(c1)C(=NO)c1cc(OC)ccc1-2"
  inhibition [%]: -4.82
- COMPOUND: "OCC[C@H]1C[C@@H](O)[C@H](O)[C@]2(OCc3ccccc32)O1"
  inhibition [%]: 4.05
- COMPOUND: "COc1ccc(OC)c(-c2csc(NC(=O)CSc3ccccc3)n2)c1"
  inhibition [%]: -4.32
- COMPOUND: "C=CCc1cc(C)ccc1OCCOCCC(C(=O)OCC)C(=O)OCC"
  inhibition [%]: -7.06
- COMPOUND: "CCN(CCNCC(O)COCc1ccc(Cl)cc1)c1cccc(C)c1 (configuration not stated)"
  inhibition [%]: 57
- COMPOUND: "O=C(CSC(=S)N1CCCC1)c1ccccc1"
  inhibition [%]: -7.15
- COMPOUND: "Cc1ccc(-c2nc3ncccn3c2Nc2ccc3c(c2)OCCO3)o1"
  inhibition [%]: 3.72
- COMPOUND: "O=C(NCc1cccs1)c1cc(S(=O)(=O)N2CCOCC2)ccc1N1CCCC1"
  inhibition [%]: 5.48
- COMPOUND: "COc1ccccc1OCCOCCN1CCCC1"
  inhibition [%]: -4.15
- COMPOUND: "CC[n+]1c(/C=C/N(C)c2ccccc2)sc2ccc(Cl)cc21"
  inhibition [%]: 0.95
- COMPOUND: "O=C(NC(=S)Nc1ccc2[nH]c(=O)[nH]c2c1)c1ccccc1F"
  inhibition [%]: -4.55
- COMPOUND: "Cc1nc2cc(C(=O)N3CCC4(CC3)OCCO4)ccc2n1-c1ccc(Br)cc1"
  inhibition [%]: 9.84
- COMPOUND: "Cc1ccc(C(C)C)c(OCC(O)CNC2CCCC2)c1 (configuration not stated)"
  inhibition [%]: 9.04
- COMPOUND: "COc1ccc(C(=O)OCC(=O)c2cc(OC)ccc2OC)c(OC)c1"
  inhibition [%]: -2.93
- COMPOUND: "Cc1ccc2c(c1)Oc1ccc([N+](=O)[O-])cc1C(=O)N2"
  inhibition [%]: 3.53
- COMPOUND: "O=C(NN=C1CCCCCC1)c1ccc(Cl)s1"
  inhibition [%]: -7.6
- COMPOUND: "Cc1cc(C(=O)CSc2nc(N)cc(N)n2)c(C)n1CC1CCCO1 (configuration not stated)"
  inhibition [%]: -3.69
- COMPOUND: "ON=C1c2cc(OCCN3CCCCC3)ccc2-c2ccc(OCCN3CCCCC3)cc21"
  inhibition [%]: 7.74
